- target: FABP1 (Homo sapiens, UniProt P07148)
- Construct: GST (N, cleaved yes); made in house; host or cells: Escherichia coli DH5α
- experiment.summary: DAUDA displacement fluorescence titrations of DAUDA–FABP1 with fatty acids, fit in KinTek Explorer
- Type: binding
- experimental.context: lipid binding to ternary complex FDS (full displacement of DAUDA); low-affinity site; read-out: Kd, FDS + S ↔ FSS + D
property.name: Kd (µM)
One number for each entry, in µM.

compound="CCCCCCCCCCCCCC(=O)O [Myristate (C14), myristate]" target="FABP1 (Homo sapiens, UniProt P07148)" scale_unit=µM value_reported=43

# map each compound to its Kd
1. O=C(O)CCCCCCCCCCCCCCCO [16-OH Palmitate (C16), 16-hydroxypalmitate]
2. CCCCCCCCCCCCCCCCCC(=O)O [Stearate (C18), stearate]
3. CCCCCCCCCCCCCCCC(=O)O [Palmitate (C16), palmitate]

Result:
63
34
10

* * *

- target: UniProtKB Q02928
- Sequence (Q02928 5-519): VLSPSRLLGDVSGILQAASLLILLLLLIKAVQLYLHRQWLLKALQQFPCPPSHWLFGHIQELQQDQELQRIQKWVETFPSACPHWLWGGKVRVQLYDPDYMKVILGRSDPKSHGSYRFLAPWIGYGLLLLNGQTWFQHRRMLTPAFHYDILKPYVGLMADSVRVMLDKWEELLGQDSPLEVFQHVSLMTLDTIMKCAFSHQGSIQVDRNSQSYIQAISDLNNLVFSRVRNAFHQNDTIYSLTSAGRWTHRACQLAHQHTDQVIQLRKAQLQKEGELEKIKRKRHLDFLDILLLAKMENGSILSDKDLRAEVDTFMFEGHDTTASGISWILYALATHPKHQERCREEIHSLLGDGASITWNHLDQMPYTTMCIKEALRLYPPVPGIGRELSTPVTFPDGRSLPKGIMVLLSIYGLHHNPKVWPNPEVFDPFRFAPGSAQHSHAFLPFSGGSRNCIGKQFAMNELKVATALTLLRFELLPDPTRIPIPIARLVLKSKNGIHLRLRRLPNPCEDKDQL
- experiment.summary: Ketoconazole trap experiment for lipid koff from P450 4A11
- Format: binding
- Parameters: made in house; host or cells: E. coli
- experimental.context: quotient of experimentally determined rates; read-out: Kd estimate for P450 4A11 as koff/kon
property.name: pKd
Numbers only, as −log10 of the molar value.

Ask: Return value of pKd for input CCCCCCCCCCCCCCCC(=O)O [Palmitate (C16), palmitate] , no commentary.
Result: 5.32

* * *

Please provide measured Kd for the entries that follow.
- target: FABP1 (Homo sapiens, UniProt P07148)
- Construct: GST (N, cleaved yes); made in house; host or cells: Escherichia coli DH5α
- Sequence (P07148 with tags, fused parts or gaps): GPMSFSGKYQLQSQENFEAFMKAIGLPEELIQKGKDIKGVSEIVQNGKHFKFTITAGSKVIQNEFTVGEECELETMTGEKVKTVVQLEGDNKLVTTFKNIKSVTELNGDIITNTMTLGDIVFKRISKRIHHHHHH
- experiment.summary: DAUDA displacement fluorescence titrations of DAUDA–FABP1 with fatty acids, fit in KinTek Explorer
- Assay type: binding
- experimental.context: lipid binding to apo-FABP1; estimated via kinetic modeling; read-out: Kd, F + S ↔ FS
- Excerpt: The FABP–DAUDA system was used to screen saturated fatty acids (C12 to C18) for binding to FABP, and the Kd values were estimated in competition with the fluorophore (using its known Kd) with the kinetic modeling software KinTek Explorer. The general model is shown in Fig. 5A, where the substrate is competed against the fluorescent DAUDA–FABP1 complex for binding, yielding a ternary DAUDA–FABP1–substrate complex that is accompanied by an attenuation in fluorescence. […]
Answers are plain numbers, in nM.

The following compounds have reported results that may help.
compound="CCCCCCCCCCCCCC(=O)O [Myristate (C14), myristate]" scale_unit=nM value_reported=2600
compound="CCCCCCCCCCCCCCCC(=O)O [Palmitate (C16), palmitate]" scale_unit=nM value_reported=46
compound="O=C(O)CCCCCCCCCCCCCCCO [16-OH Palmitate (C16), 16-hydroxypalmitate]" scale_unit=nM value_reported=520
compound="CCCCCCCCCCCCCCCCCC(=O)O [Stearate (C18), stearate]" scale_unit=nM value_reported=69

Ask: Return value of Kd for input CCCCCCCCCCCC(=O)O [Laurate (C12), laurate] , no commentary.
Result: 30000
